Tested on: Rattus norvegicus
assay.details: Evaluated in vivo for logarithm effective dose (ED)
Type: functional, organism-based
recorded.metric: in vivo pA2 effective dose (as concentration) (nM)

{"smiles.code": "CCC[C@@H]1NC(=O)[C@H](Cc2ccccc2)NC(=O)[C@@H]([C@H](C)CC)NC(=O)CC2(CCCCC2)SSC[C@@H](C(=O)N2CCC[C@H]2C(=O)N[C@@H](CCCN=C(N)N)C(=O)NCC(N)=O)NC(=O)[C@H](CC(N)=O)NC1=O", "result": 110}
{"smiles.code": "NC(=O)CNC(=O)[C@H](CCCN=C(N)N)NC(=O)[C@@H]1CCCN1C(=O)[C@@H]1CSSC2(CCCCC2)CC(=O)N[C@H](Cc2ccccc2)C(=O)N[C@@H](Cc2ccccc2)C(=O)N[C@@H](CO)C(=O)N[C@@H](CC(N)=O)C(=O)N1", "result": 23.4}
{"smiles.code": "CC[C@@H](C)[C@H]1NC(=O)CC2(CCCCC2)SSC[C@@H](C(=O)N2CCC[C@H]2C(=O)N[C@@H](CCCN=C(N)N)C(=O)NCC(N)=O)NC(=O)[C@H](CC(N)=O)NC(=O)[C@H]([C@@H](C)O)NC(=O)[C@H](Cc2ccccc2)NC1=O", "result": 148}
{"smiles.code": "CC[C@@H](C)[C@H]1NC(=O)CC2(CCCCC2)SSC[C@@H](C(=O)N2CCC[C@H]2C(=O)N[C@@H](CCCN=C(N)N)C(=O)NCC(N)=O)NC(=O)[C@H](CC(N)=O)NC(=O)[C@H](CC(N)=O)NC(=O)[C@H](Cc2ccccc2)NC1=O", "result": 55}

Data provenance: ChEMBL document CHEMBL1122629
